Source: patent US20250205259A1

Each item that follows carries a reported pIC50.
Molecular target: UniProt:C7C422
Assay: Inhibitory activity on MBL, fluorescent substrate FC-5
Type: biochemical
Settings: read-out: Inhibitory activity on MBL NDM-1 (IC50 class)
pIC50: −log10 of the molar value.

Use the examples below as a reference point.
O=C(O)c1c(Cn2cc3c(n2)CNC3)ccc2c1OB(O)[C@@H]1C[C@H]21 | 6.00 to 8.00
O=C(O)c1c(Cn2cc3c(n2)CNC3)ccc2c1OB(O)CC2 [Compound 56-Na] | 6.00 to 8.00
NCc1ccn(Cc2ccc3c(c2C(=O)O)OB(O)CC3)n1 | 6.00 to 8.00
NCCNc1cnn(Cc2ccc3c(c2C(=O)O)OB(O)CC3)c1 | 6.00 to 8.00
NS(=O)(=O)N1Cc2cn(Cc3ccc4c(c3C(=O)O)OB(O)CC4)nc2C1 | 6.00 to 8.00
NCCc1cn(Cc2ccc3c(c2C(=O)O)OB(O)CC3)nn1 | 4.00 to 6.00
O=C(O)c1c(Cn2nccn2)ccc2c1OB(O)CC2 | 6.00 to 8.00
O=C(O)c1c(Cn2ccnn2)ccc2c1OB(O)C1CC21 (stereo not shown) | 4.00 to 6.00
NC(=O)c1ccn(Cc2ccc3c(c2C(=O)O)OB(O)CC3)n1 | 6.00 to 8.00
O=C(O)c1c(Cn2cc(C3CNC3)nn2)ccc2c1OB(O)CC2 | 6.00 to 8.00

Data request, read-out pIC50, for C[n+]1ccn(Cc2ccc3c(c2C(=O)O)OB(O)CC3)n1
6.00 to 8.00

Data request, read-out pIC50, for O=C(O)c1c(Cn2cc([N+](=O)[O-])cn2)ccc2c1OB(O)CC2
6.00 to 8.00

Data request, read-out pIC50, for Nc1ccc(-c2cn(Cc3ccc4c(c3C(=O)O)OB(O)CC4)nn2)cc1
6.00 to 8.00

###

Molecular target: AmpC (UniProt P24735)
Assay: Inhibitory activity on SBL, fluorescent substrate FC-5
Conditions: read-out: AmpC, number in parentheses under the class symbol; unit inferred
quantityName: IC50
Don't forget the unit after the value.

Data request, read-out IC50, for O=C(O)c1c(CNc2nncs2)ccc2c1OB(O)CC2 [Comparative example 1 compound 64, reference compound]
7.5 µM

###

Biological target: UniProt C7C422
Experiment: Inhibitory activity on MBL, fluorescent substrate FC-5
Type: biochemical
Conditions: read-out: Inhibitory activity on MBL NDM-1 (IC50 class)
pIC50: −log10 of the molar value.
quantityName: pIC50

Data request, read-out pIC50, for O=C(O)c1c(Cn2ncc3ccccc32)ccc2c1OB(O)CC2
6.00 to 8.00

Data request, read-out pIC50, for N=C(N)NCCc1cn(Cc2ccc3c(c2C(=O)O)OB(O)CC3)nn1
6.00 to 8.00

Data request, read-out pIC50, for NCCN1Cc2cn(Cc3ccc4c(c3C(=O)O)OB(O)CC4)nc2C1
6.00 to 8.00

Data request, read-out pIC50, for N#CCCCc1cn(Cc2ccc3c(c2C(=O)O)OB(O)CC3)nn1
4.00 to 6.00

Data request, read-out pIC50, for N=C(N)N1CC(c2cn(Cc3ccc4c(c3C(=O)O)OB(O)CC4)nn2)C1
6.00 to 8.00

###

Target: NDM-5 (Klebsiella pneumoniae, UniProt C7C422, M154L/V88L)
Sequence (C7C422 29-270 V88L/M154L): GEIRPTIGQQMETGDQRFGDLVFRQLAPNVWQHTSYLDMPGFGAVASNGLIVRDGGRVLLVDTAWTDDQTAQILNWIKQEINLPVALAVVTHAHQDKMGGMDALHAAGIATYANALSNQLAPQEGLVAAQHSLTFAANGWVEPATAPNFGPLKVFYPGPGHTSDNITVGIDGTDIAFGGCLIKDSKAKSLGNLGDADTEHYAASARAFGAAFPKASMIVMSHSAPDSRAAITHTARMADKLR
Assay: Inhibitory activity on MBL, fluorescent substrate FC-5
Type: biochemical
Settings: Inhibitory activity on MBL NDM-5 (IC50 class)
quantityName: IC50

Data request, read-out IC50, for NS(=O)(=O)Nc1cnn(Cc2ccc3c(c2C(=O)O)OB(O)CC3)c1
10 to 1000 nM
